biological target: human GABAA α5β2γ1 receptor (Homo sapiens (Human), UniProt P31644+Q8N1C3); assay: Radioligand binding assay, competition for [3H]RO7239181, γ1-containing GABAA subtypes; settings: Table 1; [3H]RO7239181 displacement, membranes from HEK293F cells, mean of two determinations
Lab note: cut-off is 5 nM. Strictly less in Ki is Criterion met. Exactly 5 nM or more is Criterion not met.

{"compound": "Cc1nnc2n1-c1cnc(Cl)c(Cl)c1C(c1c(F)cccc1F)=N[C@H]2C [Example 1]", "answer-label": "Criterion met"}
{"compound": "C[C@@H]1N=C(c2c(F)cccc2F)c2c(cnc(C(F)(F)F)c2Cl)-n2nc(N3CCCC3=O)nc21 [Example 13]", "answer-label": "Criterion met"}
{"compound": "C[C@@H]1N=C(c2c(F)cccc2F)c2c(cnc(C(F)(F)F)c2Cl)-n2nc(C(=O)N3CCC3)nc21 [Example 6]", "answer-label": "Criterion not met"}
{"compound": "C[C@@H]1N=C(c2c(F)cccc2F)c2c(cnc(C(F)(F)F)c2Cl)-n2nc(C(=O)NCC3(O)CC3)nc21 [Example 22]", "answer-label": "Criterion not met"}
{"compound": "Cc1nnc2n1-c1cnc(C3CC3)c(Cl)c1C(c1c(F)cccc1F)=N[C@H]2C [Example 2]", "answer-label": "Criterion not met"}
{"compound": "C[C@@H]1N=C(c2c(F)cccc2F)c2c(cnc(C(F)(F)F)c2Cl)-n2nc(C(=O)N3CCS(=O)(=O)CC3)nc21 [Example 11]", "answer-label": "Criterion met"}
{"compound": "C[C@@H]1N=C(c2c(F)cccc2F)c2c(cnc(C(F)(F)F)c2Cl)-n2nc(C(=O)N3CC(O)C3)nc21 [Example 8]", "answer-label": "Criterion met"}
{"compound": "C[C@@H]1N=C(c2c(F)cccc2F)c2c(cnc(C(F)(F)F)c2Cl)-n2nc(C(=O)N[C@H]3C[C@H](O)C3)nc21 [Example 24]", "answer-label": "Criterion met"}
{"compound": "Cc1ncc2c(c1Cl)C(c1c(F)cccc1F)=N[C@@H](C)c1nnc(C)n1-2 [Example 3]", "answer-label": "Criterion met"}
{"compound": "COC1CN(C(=O)c2nc3n(n2)-c2cnc(C(F)(F)F)c(Cl)c2C(c2c(F)cccc2F)=N[C@H]3C)C1 [Example 9]", "answer-label": "Criterion not met"}
{"compound": "C[C@H](O)CNC(=O)c1nc2n(n1)-c1cnc(C(F)(F)F)c(Cl)c1C(c1c(F)cccc1F)=N[C@H]2C [Example 14]", "answer-label": "Criterion met"}
{"compound": "C[C@@H]1N=C(c2c(F)cccc2F)c2c(cnc(C(F)(F)F)c2Cl)-n2nc(C(=O)N[C@H]3C[C@@H](O)C3)nc21 [Example 23]", "answer-label": "Criterion not met"}
{"compound": "Cc1nc2n(n1)-c1cnc(C(F)(F)F)c(Cl)c1C(c1c(F)cccc1F)=N[C@H]2C [Example 5]", "answer-label": "Criterion met"}
{"compound": "C[C@@H]1N=C(c2c(F)cccc2F)c2c(cnc(C(F)(F)F)c2Cl)-n2nc(C(=O)NC[C@@H](C)O)nc21 [Example 16]", "answer-label": "Criterion met"}
{"compound": "C[C@@H]1N=C(c2c(F)cccc2F)c2c(cnc(C(F)(F)F)c2Cl)-n2cc(C(=O)NCCO)nc21 [Example 19]", "answer-label": "Criterion met"}

Numbers sourced from patent US20240270744A1.
